- study system: CDK16/Cyclin Y (Homo sapiens)
- Sequence (Q00536 whole entry): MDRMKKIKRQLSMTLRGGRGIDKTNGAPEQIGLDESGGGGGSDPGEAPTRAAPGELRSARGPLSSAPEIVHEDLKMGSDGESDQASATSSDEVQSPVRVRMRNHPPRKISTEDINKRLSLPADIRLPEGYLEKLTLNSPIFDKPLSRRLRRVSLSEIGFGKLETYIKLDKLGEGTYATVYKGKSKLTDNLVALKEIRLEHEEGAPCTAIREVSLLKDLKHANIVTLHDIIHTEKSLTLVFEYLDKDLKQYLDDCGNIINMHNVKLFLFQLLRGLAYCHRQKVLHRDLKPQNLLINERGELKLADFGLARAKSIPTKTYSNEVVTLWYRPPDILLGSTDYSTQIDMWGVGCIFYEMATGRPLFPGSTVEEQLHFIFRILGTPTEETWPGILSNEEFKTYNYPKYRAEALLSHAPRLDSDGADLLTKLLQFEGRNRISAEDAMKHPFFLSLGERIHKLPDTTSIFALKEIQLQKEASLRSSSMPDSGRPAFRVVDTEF
- Sequence (Q8ND76 whole entry partner): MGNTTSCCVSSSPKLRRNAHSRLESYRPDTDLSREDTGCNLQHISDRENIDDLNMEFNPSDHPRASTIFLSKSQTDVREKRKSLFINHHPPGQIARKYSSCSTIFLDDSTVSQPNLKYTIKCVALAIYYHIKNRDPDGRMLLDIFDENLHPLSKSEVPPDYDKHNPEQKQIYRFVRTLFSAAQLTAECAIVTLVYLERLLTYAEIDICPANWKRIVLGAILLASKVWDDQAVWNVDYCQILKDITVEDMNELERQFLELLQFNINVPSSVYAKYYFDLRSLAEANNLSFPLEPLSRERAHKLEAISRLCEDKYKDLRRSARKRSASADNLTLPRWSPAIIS
- test summary: NanoBRET live-cell target engagement, CDK16-NanoLuc/Cyclin Y in HEK-293
- Assay type: binding
- measurement conditions: CDK16/Y; 10µM; read-out: Inhibition at 10µM (%) Replicate 2
measured property: inhibition at 10 µM (%)
Numbers only, in %.

The following compounds have reported results that may help.
CCN1CCN(Cc2ccc(Nc3ncc(F)c(-c4cc(F)c5nc(C)n(C(C)C)c5c4)n3)nc2)CC1 [Abemaciclib]
85.8
Cc1ncc(-c2ccnc(Nc3ccc(S(C)(=O)=O)cc3)n2)n1C(C)C [AZD5438]
89.6
COc1cc(F)ccc1-c1cc(Nc2cc(CS(C)(=N)=O)ccn2)ncc1F (centres unmarked) [BAY-1251152]
66.7
COc1cc(F)ccc1-c1ncnc(Nc2cccc(C[S@](C)(=N)=O)c2)n1 [Atuveciclib]
37.9

# input for lookup
[in] inhibition at 10 µM lookup needed for CCCCOc1c(C(=O)c2c(F)cc(C)cc2F)c[nH]c2nncc1-2 [BMS-265246] , thanks.
[out] 76.5

* * *

Field: inhibition at 10 µM. Provide a value for each of the molecules that follow.
- study system: CDK8/Cyclin C (Homo sapiens)
- Sequence (P49336 whole entry): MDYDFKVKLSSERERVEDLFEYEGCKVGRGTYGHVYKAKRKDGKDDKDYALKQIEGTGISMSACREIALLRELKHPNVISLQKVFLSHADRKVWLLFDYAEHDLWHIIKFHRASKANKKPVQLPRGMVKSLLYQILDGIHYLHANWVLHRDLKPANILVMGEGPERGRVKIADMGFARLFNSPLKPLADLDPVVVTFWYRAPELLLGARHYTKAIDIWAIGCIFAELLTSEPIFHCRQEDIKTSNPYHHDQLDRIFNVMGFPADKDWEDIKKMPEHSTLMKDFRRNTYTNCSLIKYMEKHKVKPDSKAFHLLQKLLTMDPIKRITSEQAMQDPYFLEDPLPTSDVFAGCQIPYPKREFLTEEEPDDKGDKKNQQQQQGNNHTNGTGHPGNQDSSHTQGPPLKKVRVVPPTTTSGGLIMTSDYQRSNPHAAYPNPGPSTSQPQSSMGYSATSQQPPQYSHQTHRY
- Sequence (P24863 whole entry partner): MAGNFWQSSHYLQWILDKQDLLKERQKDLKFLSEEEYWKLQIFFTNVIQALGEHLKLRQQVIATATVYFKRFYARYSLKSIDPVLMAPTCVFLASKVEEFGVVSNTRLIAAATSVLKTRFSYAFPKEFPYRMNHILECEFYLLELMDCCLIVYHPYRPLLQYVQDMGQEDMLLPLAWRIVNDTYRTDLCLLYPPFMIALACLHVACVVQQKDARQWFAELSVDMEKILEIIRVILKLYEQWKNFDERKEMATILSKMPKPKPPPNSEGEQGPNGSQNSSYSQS
- test summary: NanoBRET live-cell target engagement, NanoLuc-CDK8/Cyclin C in HEK-293
- Type: binding
- measurement conditions: CDK8/C; experiment 1; read-out: Inhibition at 10µM (%)
Answers are plain numbers, in %.

The following molecules have reported results that may help.
CN1CCN(Cc2ccc(NC(=O)Nc3ccc(Oc4ccnc(N)n4)cc3)cc2C(F)(F)F)CC1 [K03861]
96.7
CC(C)N1CCN(c2ccc(Nc3ncc4cc5n(c4n3)C3(CCCCC3)CNC5=O)nc2)CC1 [Lerociclib]
6.7
NS(=O)(=O)c1ccc(Nc2nc(OCC3CCCCC3)c3nc[nH]c3n2)cc1 [NU6102]
17.2
CCc1cnn2c(NCc3ccc[n+]([O-])c3)cc(N3CCCC[C@H]3CCO)nc12 [Dinaciclib]
40.6
CN1CCN(c2ccc(Nc3ncc4cc(C#N)c(=O)n(C5CCCC5)c4n3)cc2)CC1 [ON123300]
6.2
CC(C)(C)c1nc(-c2cccc(NS(=O)(=O)c3c(F)cccc3F)c2F)c(-c2ccnc(N)n2)s1 [Dabrafenib]
-1.4
N#CCNC(=O)c1ccc(-c2ccnc(Nc3ccc(N4CCOCC4)cc3)n2)cc1 [Momelotinib]
15.9

# input for lookup
[in] inhibition at 10 µM lookup needed for COc1ccccc1-c1cc(Nc2cccc(CS(N)(=O)=O)c2)ncn1 [LDC000067] , thanks.
[out] 5.1

* * *

Field: inhibition at 10 µM. Provide a value for each of the molecules that follow.
- study system: CDK18/Cyclin Y (Homo sapiens, UniProt Q07002)
- Sequence (Q07002 whole entry): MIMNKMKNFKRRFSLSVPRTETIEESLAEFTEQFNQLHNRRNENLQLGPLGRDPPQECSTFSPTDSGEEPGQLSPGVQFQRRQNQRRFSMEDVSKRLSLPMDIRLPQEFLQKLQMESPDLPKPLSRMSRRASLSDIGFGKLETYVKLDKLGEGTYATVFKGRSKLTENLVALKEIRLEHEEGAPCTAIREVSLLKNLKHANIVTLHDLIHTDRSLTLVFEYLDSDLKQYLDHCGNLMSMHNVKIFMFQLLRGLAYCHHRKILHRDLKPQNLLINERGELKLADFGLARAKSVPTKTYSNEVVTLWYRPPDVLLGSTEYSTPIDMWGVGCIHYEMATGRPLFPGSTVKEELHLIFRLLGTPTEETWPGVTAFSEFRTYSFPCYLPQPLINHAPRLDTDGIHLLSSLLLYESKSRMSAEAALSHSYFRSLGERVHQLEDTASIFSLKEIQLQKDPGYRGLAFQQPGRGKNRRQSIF
- Sequence (Q8ND76 whole entry partner): as the sequence (Q8ND76 whole entry partner) above
- test summary: NanoBRET live-cell target engagement, CDK18-NanoLuc/Cyclin Y in HEK-293
- Assay type: binding
- measurement conditions: 10µM; independent experiment 1; read-out: CDK18/Y Inhibition at 10µM (%)
Give bare numbers, in %.

The following molecules have reported results that may help.
CC(C)CC(=O)Nc1[nH]nc2c1CN(C(=O)C1CCN(C)CC1)C2(C)C [PHA-793887]
86.8
CN(C)C/C=C/C(=O)Nc1ccc(C(=O)N2CCC[C@@H](Nc3ncc(Cl)c(-c4c[nH]c5ccccc45)n3)C2)cc1 [THZ531]
71.7
CN1CCN(c2ccc(Nc3ncc4cc5n(c4n3)C3(CCCCC3)CNC5=O)nc2)CC1 [Trilaciclib]
6.3
CC(C)[C@H](CO)Nc1nc(Nc2ccc(C(=O)O)c(Cl)c2)c2ncn(C(C)C)c2n1 [Purvalanol B]
-4.7
CN1C/C=C/CCOc2cccc(c2)-c2ccnc(n2)Nc2cccc(c2)C1 [SB1317]
98.4

# input for lookup
[in] inhibition at 10 µM lookup needed for CC(=O)c1c(C)c2cnc(Nc3ccc(N4CCNCC4)cn3)nc2n(C2CCCC2)c1=O [Palbociclib] , thanks.
[out] 40.9
